Target: T1, activated C1s (human, UniProt P09871 16-688)
T1 sequence: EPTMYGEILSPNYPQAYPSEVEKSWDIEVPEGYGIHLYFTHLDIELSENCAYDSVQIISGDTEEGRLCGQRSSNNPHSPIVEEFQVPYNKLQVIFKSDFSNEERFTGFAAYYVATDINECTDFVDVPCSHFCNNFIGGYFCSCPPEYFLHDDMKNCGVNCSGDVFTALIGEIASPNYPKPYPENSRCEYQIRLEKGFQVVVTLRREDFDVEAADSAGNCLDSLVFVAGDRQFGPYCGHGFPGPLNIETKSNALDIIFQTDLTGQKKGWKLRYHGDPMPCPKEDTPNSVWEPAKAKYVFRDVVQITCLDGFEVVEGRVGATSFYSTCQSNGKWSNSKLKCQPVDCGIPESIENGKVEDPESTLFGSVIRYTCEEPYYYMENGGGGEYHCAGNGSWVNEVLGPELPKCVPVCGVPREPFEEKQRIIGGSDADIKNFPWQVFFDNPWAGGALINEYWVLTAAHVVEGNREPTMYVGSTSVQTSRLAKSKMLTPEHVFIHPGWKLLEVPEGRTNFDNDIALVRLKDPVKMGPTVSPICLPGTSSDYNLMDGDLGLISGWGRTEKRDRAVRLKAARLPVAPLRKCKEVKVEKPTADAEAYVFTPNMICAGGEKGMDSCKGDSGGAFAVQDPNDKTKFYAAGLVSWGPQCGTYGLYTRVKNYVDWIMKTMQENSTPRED
Test: cell-based or functional assay
Provide the recorded IC50 of classical complement pathway inhibition ('Classical Pathway Inhibition', IC50 (M)) for the entries that follow.
Express the result in M but write the number alone.

Asked: If you can, please state the reported IC50 of classical complement pathway inhibition ('Classical Pathway Inhibition', IC50 (M)) value of humanized VH2/Vk5 (antibody, V domains shown) VH: EVQLVQSGAEVKKPGASVKLSCTASGFNIKDDYIHWVKQAPGQGLEWIGRIDPADGHTKYAPKFQVKATITADTSTNTAYLELSSLRSEDTAVYYCARYGYGREVFDYWGQGTTVTVSS VL: DIVLTQSPDSLAVSLGERATISCKASQSVDYDGDSYMNWYQQKPGQPPKLLIYDASNLESGIPARFSGSGSGTDFTLTISSLEPEDFAVYYCQQSNEDPWTFGGGTKVEIK .
Given back: 1.27e-09

Asked: What about this binder? humanized VH1/Vk2 (antibody, V domains shown) VH: EVQLVQSGAELKKPGASVKLSCTASGFNIKDDYIHWVKQAPGQGLEWIGRIDPADGHTKYAPKFQVKATITADTSTNTAYLQLSSLTSEDTAVYYCARYGYGREVFDYWGQGTTVTVSS VL: DIVLTQSPDSLAVSLGERATISCKASQSVDYDGDSYMNWYQQKPGQPPKILIYDASNLESGIPARFSGSGSGTDFTLTISSLEPEDFAIYYCQQSNEDPWTFGGGTKVEIK
Given back: 1.14e-09

Asked: What about this binder? humanized VH2/Vk1 (antibody, V domains shown) VH: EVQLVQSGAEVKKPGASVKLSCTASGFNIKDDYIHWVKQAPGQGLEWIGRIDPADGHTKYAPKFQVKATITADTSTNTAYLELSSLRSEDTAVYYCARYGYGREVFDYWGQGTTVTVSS VL: DIVLTQSPDSLAVSLGERATISCKASQSVDYDGDSYMNWYQQKTGQPPKILIYDASNLESGIPARFSGSGSGTDFTLTISSLEEEDFAIYYCQQSNEDPWTFGGGTKVEIK
Given back: 1.23e-09

Asked: What about this binder? murine anti-activated C1s antibody (antibody, V domains shown) VH: EVQLQQSGAELVRPGASVKLSCTASGFNIKDDYIHWVKQRPEQGLEWIGRIDPADGHTKYAPKFQVKATITADTSSNTAYLQLSSLTSEDTAVYYCARYGYGREVFDYWGQGTTLTVSS VL: DIVLTQSPASLAVSLGQRATISCKASQSVDYDGDSYMNWYQQKTGQPPKILIYDASNLESGIPARFSGSGSGTDFTLNIHPVEEEDAAIYYCQQSNEDPWTFGGGTKLEIK
Given back: 1.06e-09

Asked: What about this binder? humanized VH3/Vk5 (antibody, V domains shown) VH: QVQLVQSGAEVKKPGASVKLSCTASGFNIKDDYIHWVKQAPGQGLEWIGRIDPADGHTKYAPKFQVKVTITADTSTSTAYLELSSLRSEDTAVYYCARYGYGREVFDYWGQGTTVTVSS VL: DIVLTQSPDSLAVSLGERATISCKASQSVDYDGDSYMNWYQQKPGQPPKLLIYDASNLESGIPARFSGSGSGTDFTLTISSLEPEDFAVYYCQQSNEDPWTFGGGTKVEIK
Given back: 1.38e-09

Asked: What about this binder? humanized VH5/Vk1 (antibody, V domains shown) VH: QVQLVQSGAEVKKPGASVKVSCAASGFNIKDDYIHWVRQAPGQGLEWIGRIDPADGHTKYAPKFQVKVTITADTSTSTAYMELSSLRSEDTAVYYCARYGYGREVFDYWGQGTTVTVSS VL: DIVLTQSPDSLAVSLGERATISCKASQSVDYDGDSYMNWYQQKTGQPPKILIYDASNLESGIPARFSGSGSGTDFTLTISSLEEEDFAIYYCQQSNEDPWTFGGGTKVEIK
Given back: 1.08e-09

Asked: What about this binder? humanized VH4/Vk5 (antibody, V domains shown) VH: QVQLVQSGAEVKKPGASVKVSCTASGFNIKDDYIHWVRQAPGQGLEWIGRIDPADGHTKYAPKFQVKVTITADTSTSTAYMELSSLRSEDTAVYYCARYGYGREVFDYWGQGTTVTVSS VL: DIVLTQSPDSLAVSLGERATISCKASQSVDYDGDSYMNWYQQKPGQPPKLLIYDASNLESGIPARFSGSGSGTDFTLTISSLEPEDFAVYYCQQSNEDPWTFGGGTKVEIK
Given back: 1.54e-09

Asked: What about this binder? humanized VH4/Vk2 (antibody, V domains shown) VH: QVQLVQSGAEVKKPGASVKVSCTASGFNIKDDYIHWVRQAPGQGLEWIGRIDPADGHTKYAPKFQVKVTITADTSTSTAYMELSSLRSEDTAVYYCARYGYGREVFDYWGQGTTVTVSS VL: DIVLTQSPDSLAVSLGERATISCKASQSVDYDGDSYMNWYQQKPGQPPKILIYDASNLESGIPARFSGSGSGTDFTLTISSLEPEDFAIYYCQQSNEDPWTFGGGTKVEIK
Given back: 1.31e-09

Asked: What about this binder? humanized VH1/Vk1 (antibody, V domains shown) VH: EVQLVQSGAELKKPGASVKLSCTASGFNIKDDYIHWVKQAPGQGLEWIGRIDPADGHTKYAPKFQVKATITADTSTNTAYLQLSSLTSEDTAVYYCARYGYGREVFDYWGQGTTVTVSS VL: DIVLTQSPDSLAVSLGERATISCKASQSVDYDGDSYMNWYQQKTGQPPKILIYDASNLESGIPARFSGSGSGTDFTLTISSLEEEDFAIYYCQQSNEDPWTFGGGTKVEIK
Given back: 1.2e-09

Asked: What about this binder? humanized VH4/Vk1 (antibody, V domains shown) VH: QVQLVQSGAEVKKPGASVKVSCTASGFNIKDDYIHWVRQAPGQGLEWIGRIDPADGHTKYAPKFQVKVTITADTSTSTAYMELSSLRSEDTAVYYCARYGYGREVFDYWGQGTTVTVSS VL: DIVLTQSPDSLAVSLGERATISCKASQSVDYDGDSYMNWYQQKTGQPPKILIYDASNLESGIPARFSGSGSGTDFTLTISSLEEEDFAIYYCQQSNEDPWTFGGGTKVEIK
Given back: 1.35e-09
